- Procedure details: Pharmacokinetic analysis of Nec-1f in mice (tissue PK)
- Format: in vivo, C57BL/6 mice
- Measurement context: male, C57BL/6, mouse, heart, intraperitoneal, 2 mg/kg, heart; sample collection 360 min; individual mice; read-out: concentration in heart
Measured attribute: concentration at 360 min (ng/mL)
Answers are plain numbers, in ng/mL.

**Q:** Name the recorded concentration at 360 min for CN1C(=O)C(Cc2c[nH]c3c(Cl)cccc23)NC1=S (stereo not shown) [Nec-1f] .
**A:** 0

====

- Procedure details: Pharmacokinetic analysis of Nec-1f in mice (tissue PK)
- Format: in vivo, C57BL/6 mice
- Measurement context: male, C57BL/6, mouse, lung, intraperitoneal, lung; sample collection 120 min; individual mice; read-out: concentration in lung
Measured attribute: concentration at 120 min (ng/mL)
Numbers only, in ng/mL.

**Q:** Name the recorded concentration at 120 min for CN1C(=O)C(Cc2c[nH]c3c(Cl)cccc23)NC1=S (stereo not shown) .
**A:** 50

====

- Procedure details: Pharmacokinetic analysis of Nec-1f in mice (tissue PK)
- Format: in vivo, C57BL/6 mice
- Measurement context: male, C57BL/6, mouse, plasma, intraperitoneal, 2 mg/ml, plasma; sample collection 120 min; individual mice; read-out: concentration in plasma
Measured attribute: concentration at 120 min (ng/mL)
Give bare numbers, in ng/mL.

**Q:** Name the recorded concentration at 120 min for CN1C(=O)C(Cc2c[nH]c3c(Cl)cccc23)NC1=S (stereo not shown) .
**A:** 0
